# credit: PubChem BioAssay (NCATS)

Test: qHTS Assay for Lipid Storage Modulators (AID 1519); note: % is set by controls: 0 for no effect and ±100 for the full control effect
Details: Drosophila S3 cells, BODIPY lipid droplet/cell ratio, laser cytometry; at 57.5 µM (top of the series); cells loaded with oleic acid
Method: NIH Molecular Libraries Probe Production Centers Network [MLPCN] NIH Chemical Genomics Center [NCGC] Assay Submitter (PI): Beller, Mathias; Max-Planck-Institut fur Biophysikalische Chemie […] We dispensed 4 uL of cells at 1.25 x 10^6 cells/mL into LoBase Aurora COC 1,536-well plates (black walled, clear bottom) with a bottle-valve solenoid-based dispenser (Aurora) to obtain 5,000 cells/well. […] The ratio of the total intensity in PMT channel 1 over total intensity of channel 3 was also calculated. […]
Records with an inconclusive call do not appear.
Recorded activity change, negative = inhibition, one value per entry.
Write the number in % without appending the unit.

Can you look up the measured activity change, negative = inhibition of CCNc1ncc2nc(-c3cccs3)c(=O)n(C)c2n1 for me?
-12.5

====

Test system: NAD(P)H diaphorase (Clostridium kluyveri)
Assay: Diaphorse counterscreen qHTS: Assay Interference Panel against the NCATS CANVASS Library (AID 1347362); note: 0% is about no effect
Settings: Diaphorase enzyme, resazurin to resorufin fluorescence; series mostly up to 57.5 µM
Inconclusive results are not listed. Calls of active or inactive are those of the source. The call rests on the fitted dose curve; in most records, active means well fitted inhibition curve with a large enough effect; inconclusive means small, poorly fitted or top-dose-only effect; inactive means flat fitted curve, though single readings scatter.
result-type: outcome

C=C[C@@]1(C)CC[C@@H]([C@H](C)C(C)=O)O1 = inactive
CC(CCC[C@]1(C)C(=O)C=C[C@@]23C[C@]4(C)O[C@@H](C[C@@H]4[C@H]2O)C31)C(=O)O (some centres not stated) = inactive
C/C(=C\[C@H](C)C(=O)C[C@H](O)CC1CC(=O)NC(=O)C1)[C@@H]1OC(=O)CCCC/C=C/[C@@H](O)C[C@@H]1C = inactive
CO[C@H]1[C@@H](OC(=O)/C(C)=C\[C@@H]2O[C@@H]2[C@H]2O[C@H]2C)[C@H](O)[C@H](OCC23C[C@@H]4[C@H](C)CC[C@H]4C4(C=O)CC2C=C(C(C)C)C34C(=O)O)O[C@@H]1C (some centres not stated) = inactive
CC(C)=CC[C@H]1C[C@@]2(CC=C(C)C)C(=O)[C@](CC=C(C)C)(C(=O)C(C(=O)c3ccccc3)=C2O)C1(C)C = inactive
C/C(=C\[C@H](C)C(=O)C[C@H](O)CC1CC(=O)NC(=O)C1)[C@@H]1OC(=O)CCCC/C=C/C[C@@H](O)[C@@H]1C = inactive

Shift focus to the following entry.
Write down the reported outcome of C=C[C@]1(C)CC[C@@H]([C@H](C)C(=O)/C=C/C(C)(C)O)O1 , test system: NAD(P)H diaphorase (Clostridium kluyveri).
inactive

====

Experiment: Counterscreen for APE1 Inhibitors: Fluorescent Dye Displacement Validation Assay (AID 1707);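 note: plate controls were ThO with dsDNA and no compound for no effect and ThO without dsDNA for full effect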
Conditions: fluorescent dye displacement from DNA; series mostly up to 57.1 µM
Source text: In order to distinguish true inhibitors of DNA-processing enzymes from promiscuous DNA-binding compounds among screening assay hits, we developed a homogeneous and miniaturized assay based on fluorescent dye displacement test as originally described by Tse and Boger (Accounts of Chemical Research (2004) 37: 61-69). […]
Records with an inconclusive call do not appear. Activity calls are given as the source filed them. Calls follow the shape of the dose curve; as a rule, active = well fitted inhibition curve with a large enough effect; inconclusive = small, poorly fitted or top-dose-only effect; inactive = no such curve, though single readings can be large or run the other way.
result-type: outcome

Consider the reported outcome for these molecules:
NC(=O)C1=CN(C2OC(COP(=O)(O)OP(=O)(O)OC[C@H]3O[C@@H](n4cnc5c(N)ncnc54)[C@H](OP(=O)(O)O)[C@H]3O)C(O)C2O)C=CC1 (stereo partly drawn) = inactive
OC[C@H]1O[C@@H](n2cnc3c(NC4CCCC4)ncnc32)[C@H](O)[C@H]1O = inactive
OC[C@H]1O[C@@H](n2cnc3c(N[C@H]4CC5CCC4C5)ncnc32)[C@H](O)[C@@H]1O (stereo partly drawn) = inactive
NC(=S)c1ccc[n+]([C@@H]2O[C@@H](COP(=O)([O-])OP(=O)(O)OC[C@H]3O[C@@H](n4cnc5c(N)ncnc54)[C@H](OP(=O)(O)O)[C@H]3O)C(O)C2O)c1 (stereo partly drawn) = inactive

Record request: outcome value, item C[C@H]1CC2[C@@H]3CCC4=CC(=O)C=C[C@]4(C)[C@@]3(Cl)[C@@H](O)C[C@]2(C)[C@@]1(O)C(=O)CO (stereo partly drawn)
inactive

# get_value(readout='outcome', item= CSc1nc(N)c2ncn([C@@H]3O[C@H](COP(=O)(O)OP(=O)(O)OP(=O)(O)O)[C@H](O)[C@H]3O)c2n1 )
inactive

Query (molecule): CN(CCOc1ccc(C[C@H](Nc2ccccc2C(=O)c2ccccc2)C(=O)O)cc1)c1ccccn1 ; field requested: outcome
inactive

Looking for the measured outcome of CC(C)C1NC(=O)[C@H](CCCCN)NC(=O)[C@@H](Cc2c[nH]c3ccccc23)NC(=O)[C@H](Cc2ccc(O)cc2)NC(=O)[C@H](C)N(C)C(=O)[C@H](Cc2ccccc2)NC1=O (stereo partly drawn) , can you help?
inactive

Consider the molecule CN1C(=O)CCC1c1cccnc1 (stereo not drawn) and give its measured outcome.
inactive

====

Molecular target: Glucocorticoid receptor (Homo sapiens) (UniProt P04150)
Sequence (P04150 whole entry, looked up): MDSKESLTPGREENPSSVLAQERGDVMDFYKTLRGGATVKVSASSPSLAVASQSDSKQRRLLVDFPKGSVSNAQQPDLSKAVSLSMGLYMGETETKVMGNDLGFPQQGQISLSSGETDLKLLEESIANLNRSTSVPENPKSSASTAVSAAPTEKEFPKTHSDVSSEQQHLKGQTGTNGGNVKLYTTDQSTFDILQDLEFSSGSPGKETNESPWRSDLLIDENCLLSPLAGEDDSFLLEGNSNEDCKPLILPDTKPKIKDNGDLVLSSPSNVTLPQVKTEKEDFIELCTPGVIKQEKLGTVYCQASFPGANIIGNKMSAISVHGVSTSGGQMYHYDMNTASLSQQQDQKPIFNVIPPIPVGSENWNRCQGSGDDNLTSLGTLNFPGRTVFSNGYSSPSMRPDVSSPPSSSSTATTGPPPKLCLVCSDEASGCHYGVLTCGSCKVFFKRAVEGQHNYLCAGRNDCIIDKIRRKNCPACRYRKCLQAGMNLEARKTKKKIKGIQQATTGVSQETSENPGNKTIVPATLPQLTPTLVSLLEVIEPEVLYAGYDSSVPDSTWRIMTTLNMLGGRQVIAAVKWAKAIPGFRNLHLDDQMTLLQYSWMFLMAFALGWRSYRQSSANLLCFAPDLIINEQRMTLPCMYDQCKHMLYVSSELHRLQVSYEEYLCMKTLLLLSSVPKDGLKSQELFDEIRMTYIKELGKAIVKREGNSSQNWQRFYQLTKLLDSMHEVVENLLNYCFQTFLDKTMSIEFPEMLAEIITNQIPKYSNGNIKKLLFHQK
Test: GR-GFP Redistribution (AID 450); note: potency is the fitted concentration of half-maximal effect
Settings: U2OS GR-GFP nuclear translocation, laser cytometry, 2 h
Active and inactive are the calls of the source.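 The calls were made as follows: active = compounds whose dose series gives a full or clear partial fitted curve of increased nuclear translocation; inconclusive = weak partial curve or effect only at the top dose; inactive = no dose-dependent translocation response.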
result-type: Potency

// known answers, use as guide
COc1cccc(Cn2c(=O)c(-c3cn(C)c4ccccc34)nc3cnc(N4CCNCC4)nc32)c1 = > 9.22 µM (inactive)
CC(=O)NCCNc1ncnc2ccc(-c3cccc(NS(C)(=O)=O)c3)cc12 = > 46 µM (inactive)
Cc1noc(C)c1-c1nccc(NCc2cccnc2)n1 = > 46 µM (inactive)
CN(Cc1ccco1)c1cc(-c2ccccc2Cl)ncn1 = > 46 µM (inactive)
COCCn1c(=O)cnc2cnc(N3CCN(C)CC3)nc21 = > 9.22 µM (inactive)
O=c1c(-c2ccccc2)nc2cnc(N3CCNCC3)nc2n1Cc1cccs1 = > 9.22 µM (inactive)
CNc1ncnc2ccc(-c3ccccc3CN(C)C)cc12 = > 46 µM (inactive)
COCCn1c(=O)c(-c2cn(C)c3ccccc23)nc2cnc(Oc3cccc(Cl)c3)nc21 = > 9.22 µM (inactive)
O=c1c(CCc2ccccc2)nc2cnc(N3CCOCC3)nc2n1Cc1cccs1 = > 9.22 µM (inactive)
Cc1nc2cnc(N3CCOCC3)nc2n(C)c1=O = > 9.22 µM (inactive)

Shift focus to the following entry.
Reported Potency, compound Cc1ccccc1-c1cc(Nc2ccccc2)ncn1 : ____
> 46 µM (inactive)

====

Test: qHTS profiling of the MIPE4 collection as inhibitors of Plasmodium falciparum (3D7) proliferation (AID 743344);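 note: scaled between DMSO vehicle wells and 0.29 µM artemisinin as full inhibition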
Details: P. falciparum 3D7 in erythrocytes, SYBR Green DNA fluorescence, 72 h; at 28.5 µM (top of the series)
Description: Plasmodium falciparum is a virulent malarial parasite that kills 1-2 million people worldwide each year. […] Because mature erythrocytes lack DNA, only Plasmodium-derived DNA is detected. The SYBR Green viability assay was adapted from a method described previously (Plouffe et al., 2008). […] The following morning, fluorescence intensity at 485(14) nm excitation and 535(25) nm emission wavelengths was measured on an EnVision (Perkin Elmer) plate reader. […]
result-type: parasite growth, % of DMSO control (%)
State just the number; it will be interpreted in %.

CC(C)(C)c1cc(O)c(CN)c(C(C)(C)C)c1 = 6.1
O=C(Nc1ccc(-c2ccccc2)cc1)[C@H](Cc1ccc(O[S+](=O)([O-])c2cccc3cnccc23)cc1)N[S+](=O)([O-])c1cccc2cnccc12 = 5.02
CC(C)(C)OC(=O)N[C@@H](Cc1ccc(OS(=O)(=O)c2cccc3cnccc23)cc1)C(=O)N1CCCN(C(=O)OC(C)(C)C)CC1 = 5.32

# query: parasite growth, % of DMSO control of entry O=C([C@H](Cc1ccc(O[S+](=O)([O-])c2cccc3cnccc23)cc1)N[S+](=O)([O-])c1cccc2cnccc12)N1CCN(Cc2ccccc2)CC1
4.76

====

Assay: Primary qHTS for inhibitors of nuclear receptor binding SET domain protein 2 (NSD2) in an isogenic RCH-ACV NSD2 p.E1099K mutant (9B) (AID 1645876); note: nearly all actives have a fitted effect of over 70% in size
Settings: RCH-ACV (leukaemia line) NSD2 E1099K (9B) viability, CellTiter-Glo, 72 h; series mostly up to 44.9 µM
Results filed as inconclusive are left out. The source made the active and inactive calls. Calls follow the shape of the dose curve; as a rule, active = well fitted inhibition curve with a large enough effect; inconclusive = small, poorly fitted or top-dose-only effect; inactive = flat fitted curve, though single readings scatter.
# valid calls are YES = active, NO = inactive; nothing else

C=CCNc1c(O)cc2c(O)c1C[C@@H](C)C[C@H](OC)[C@H](O)[C@@H](C)/C=C(/C)[C@H](OC(N)=O)[C@@H](OC)/C=C\C=C(\C)C(=O)N2 = YES
CCC[C@H](NC(=O)/C(C#N)=C/c1cccc(Br)n1)c1ccccc1 = YES
CC(C)(C)C(=O)N1N=CC[C@H]1c1ccccc1 = NO
Cc1c(F)cccc1NC(=O)Nc1ccc(Cl)c(S(=O)(=O)[C@H]2CCCNC2)c1O = NO

For C[C@@H]1[C@H](O)[C@@H](C)/C=C/C=C/C=C/C=C/C=C/C=C/C=C/[C@H](O[C@@H]2O[C@H](C)[C@@H](O)[C@H](N)[C@@H]2O)C[C@@H]2O[C@](O)(C[C@@H](O)C[C@@H](O)[C@H](O)CC[C@@H](O)C[C@@H](O)CC(=O)O[C@H]1C)C[C@H](O)[C@H]2C(=O)O , what call appears in the results of this test?
NO

Just curious, what result did O=C(Nc1cccc(C(F)(F)F)c1)c1cccc2cc(Oc3cc(CO)ncn3)ccc12 get here?
NO

What outcome does the record of this test show for Fc1ccc(-c2csc3ncnc(NCc4ccc5c(c4)OCO5)c23)cc1 ?
YES
